Origin of measurements: ChEMBL document CHEMBL1201862

Test system: UACC-62
Assay: NCI tumour cell line growth inhibition, 48 h
Calls of active or inactive are those of the source. Cut-off read from the data, not from the text of the source: active = GI50 up to about 1.1 µM and inactive = higher.
# Lookup of reported GI50 keyed by entry

>  <compound>
COc1ccc(/C=C2\CN(C)Cc3c2nc(N)nc3-c2ccc(OC)cc2)cc1

>  <GI50>
87.1 µM (inactive)

$$$$
>  <compound>
O=C1/C(=C\c2ccccc2)c2ccccc2N1Cc1ccccc1

>  <GI50>
7.1 µM (inactive)

$$$$
>  <compound>
O=C1N=C(c2ccccc2)OC1C(=O)c1ccccc1 (stereo unspecified)

>  <GI50>
> 100 µM (inactive)

$$$$
>  <compound>
C[Si](C)(C)c1ccc(CC2(Cc3ccc([Si](C)(C)C)cc3)CCNC2)cc1

>  <GI50>
2.02 µM (inactive)

$$$$
>  <compound>
N#Cc1cnc(-n2[nH]c3c(c2=O)CCCC3)[nH]c1=O

>  <GI50>
38.6 µM (inactive)

$$$$
>  <compound>
COC1(C)CC2N(C(=O)c3ccccc3)N=C(c3ccccc3)CC2(C)O1 (stereo unspecified)

>  <GI50>
43.3 µM (inactive)

$$$$
>  <compound>
CC(C)OP(=O)(CCCCCCCCC/C=C/c1ccc2c(c1)OCCOCCOCCOCCO2)OC(C)C

>  <GI50>
3.79 µM (inactive)

$$$$
>  <compound>
COc1ccc2c(c1)CC[C@@H]1[C@@H]2CC[C@]2(C)/C(=N/OCCN3CCCC3)CC[C@@H]12

>  <GI50>
1.82 µM (inactive)

$$$$
>  <compound>
O=C(N/N=C/c1ccc(O)cc1)NNCCO

>  <GI50>
> 100 µM (inactive)

$$$$
>  <compound>
CCC1=C(c2ccc(OC)cc2)CC[C@]2(CCNC2=O)[C@@H]1C

>  <GI50>
24.4 µM (inactive)

$$$$
>  <compound>
O=C1/C(=C/c2ccccc2)CN(C(=O)OCc2ccccc2)C/C1=C\c1ccccc1

>  <GI50>
12.2 µM (inactive)

$$$$
>  <compound>
CC(C)=CC1CC(=[N+]=[N-])C(=O)C1(C)C (stereo unspecified)

>  <GI50>
> 100 µM (inactive)

$$$$
>  <compound>
Cn1c(=O)c2ccccc2c2nc3ccccc3nc21

>  <GI50>
> 100 µM (inactive)

$$$$
>  <compound>
Nc1nc2[nH]c(=O)cnc2c(=O)[nH]1

>  <GI50>
> 125 µM (inactive)

$$$$
>  <compound>
CC1(C)OC2C(CO)OC(N/C(=N/C#N)Oc3ccccc3)C2O1 (stereo unspecified)

>  <GI50>
> 100 µM (inactive)

$$$$
>  <compound>
COc1cccc(C2=NC(C(C)C)CO2)c1 (stereo unspecified)

>  <GI50>
> 100 µM (inactive)

$$$$
